- tgt: human Cot/Tpl2 kinase (Homo sapiens)
- Construct: human Cot/Tpl2 kinase construct encoding residues 30-398; 6His (N); made in house; host or cells: Sf9 insect cells, baculovirus system (BD Biosciences)
- assay.details: Tpl2/Cot kinase assay: GST-MEK1 phosphorylation detected by ELISA (DELFIA Eu)
- Type: biochemical
- protocol.conditions: 0.4 nM Tpl2, 35 nM GST-MEK1, 50 uM ATP, 1 h at 30° C.
readout.kind: IC50 (µM)

CN(C)C(=O)c1cc(NCc2nc3ccccc3n2C)cc2c(Nc3ccc(F)c(Cl)c3)c(C#N)cnc12 [Example 83]	0.063
CS(=O)(=O)c1ccc(CNc2ccc3ncc(C#N)c(Nc4ccc(F)c(Cl)c4)c3c2)cc1 [Example 50]	0.2
N#Cc1cnc2ccc(NC[C@H]3CCCN3)cc2c1Nc1ccc(F)c(Cl)c1 [Example 46]	30
CCOCCOc1ccc(Br)c(CNc2ccc3ncc(C#N)c(Nc4ccc(F)c(Cl)c4)c3c2)c1 [Example 58]	1.1
CC(C)(C)OC(=O)N1CCC(CNc2cc(Cl)c3ncc(C#N)c(Nc4ccc(F)c(Cl)c4)c3c2)CC1 [Example 322]	2.12

P: Cn1ccnc1CNc1cc(C(F)(F)F)c2ncc(C#N)c(Nc3ccc(F)c(Cl)c3)c2c1 [Example 236]
Q: N#Cc1cnc2ccc(NCc3c[nH]nc3-c3cccs3)cc2c1Nc1ccc(F)c(Cl)c1 [Example 35]
R: CN1CCCC1CCn1cc(CNc2cc(Br)c3ncc(C#N)c(Nc4ccc(F)c(Cl)c4)c3c2)nn1 (centres unmarked) [Example 305]
-- ask Please list these compounds in decreasing order of IC50. Form entry: ranked labels (order as requested).
-- reply Q, P, R

* * *

- tgt: human Cot/Tpl2 kinase (Homo sapiens, UniProt P41279)
- Construct: human Cot/Tpl2 kinase construct encoding residues 30-398; 6His (N); made in house; host or cells: Sf9 insect cells, baculovirus system (BD Biosciences)
- Sequence (P41279 30-398): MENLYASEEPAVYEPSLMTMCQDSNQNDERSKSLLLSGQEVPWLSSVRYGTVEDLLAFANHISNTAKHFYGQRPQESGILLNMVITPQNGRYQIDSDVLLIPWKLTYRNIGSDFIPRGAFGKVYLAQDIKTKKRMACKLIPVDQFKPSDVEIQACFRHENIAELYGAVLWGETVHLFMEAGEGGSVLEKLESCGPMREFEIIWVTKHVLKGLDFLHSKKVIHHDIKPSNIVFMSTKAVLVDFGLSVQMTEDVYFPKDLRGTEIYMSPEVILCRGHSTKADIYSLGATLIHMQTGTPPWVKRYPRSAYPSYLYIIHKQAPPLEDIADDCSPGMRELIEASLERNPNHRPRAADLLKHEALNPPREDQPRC
- assay.details: Tpl2/Cot kinase assay: GST-MEK1 phosphorylation detected by ELISA (DELFIA Eu)
- Assay type: biochemical
- protocol.conditions: Tpl2/Cot kinase, GST-MEK1 substrate, 50 uM ATP, 1 h at 30° C.; Table 2
- Protocol: Sf9 cells expressing the kinase were lysed in 50 mM NaPhosphate pH=8; 300 mM NaCl; 5 mM imidazole; 0.1 mM EGTA; 25 mM beta-glycerophosphate; 1% TX-100, 1% glycerol; 6 mM beta-mercaptoethanol and protease inhibitors. […] Tpl2/Cot activity was directly assayed using GST-MEK1 as a substrate. GST-MEK1 phosphorylation on serine residues 217 and 221 was detected by ELISA. […] After a final wash, Eu detection solution was added to each well and the Eu signal was measured in a Wallac Victor^2 Multilabel Counter. […]
pIC50: −log10 of the molar value.
readout.kind: pIC50

Solved entries (count: 2):
Cn1cc(CNc2cc(Cl)c3ncc(C#N)c(Nc4ccc(F)c(Cl)c4)c3c2)cn1	6.54
N#Cc1cnc2c(Cl)cc(NCc3cn(C4CCN(CCF)CC4)nn3)cc2c1Nc1ccc(F)c(Cl)c1	7.82

I: N#Cc1cnc2c(Cl)cc(NCc3cn(CC(O)c4ccncc4)nn3)cc2c1Nc1ccc(F)c(Cl)c1 (stereo not drawn)
II: N#Cc1cnc2c(Cl)cc(NCc3cn(CCN4CCNCC4)nn3)cc2c1Nc1ccc(F)c(Cl)c1
-- ask Decide: I or II , by lowest recorded pIC50. To answer, give the label that identifies your chosen option.
-- reply II
(II: 6.51, I: 7.72)
